Could you please report measured pKd for the items listed next?
- Experimental target: T1, recombinant human IL-17A (human, UniProt Q16552 24-155)
- T1 construct: Bought recombinant protein (Peprotech AF-200-17); also called Peprotech AF-200-17
- T1 sequence (Q16552 24-155): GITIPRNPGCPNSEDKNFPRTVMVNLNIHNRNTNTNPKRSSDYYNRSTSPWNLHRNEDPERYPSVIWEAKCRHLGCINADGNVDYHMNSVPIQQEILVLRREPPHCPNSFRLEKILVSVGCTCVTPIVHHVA
- Test description: SPR (BIAcore T200), IL-17A coupled to CM5 chip, single-cycle kinetics
One number for each entry, as −log10 of the molar value.

// below: answered binders
VH 1.1.1 (clone 1.1 expressed from phagemid vector: with linker residues and His tag) (VHH, Human single VH domain; also called Family 1 (clone 1.1)) VHH: EVQLVESGGGLVQPGGSLRLSCAASGFTFSSYSMYWVRQAPGKGLEWVANIKQDGSEKYYVDSVKGRFTISRDNAKNSLFLQMNSLRAEDTAVYYCAKGEILPLHFDYWGQGTLVTVSS	8.30
Family 5 (clone 5.1) (VHH, Human single VH domain) VHH: EVQLVESGGGLVQPGGSLRLSCAASGFTFSSYWMSWVRQAPGKGLEWVANIKQDGSEKYYVDSVKGRFTISRDNAKNSLYLQMNSLRAEDTAVYYCAHGQWPFFDYWGQGTMVTVSS	6.78
Family 2 (clone 2.1) (VHH, Human single VH domain; also called VH 2.1.1) VHH: QVQLVESGGGLVQPGGSLRLSCAASGFTFSSYGMGWVRQAPGKGLEWVAKIKQDGSEKDYVDSVKGRFTISRDNAKKSLFLQMNSLRAEDTAVYYCARESIFGIPEDWGQGTLVTVSS	8.70

Next binder, pKd to be filled in.
Value of measured pKd for the entry Family 4 (clone 4.1) (VHH, Human single VH domain) VHH: QVQLVESGGGLVQPGGSLRLSCAASGFTFSSYWMNWVRQAPGKGLEWVATIKQDGSEKYYVDSVKGRFTISRDNATNSLFLQMNSLRAEDTAVYYCARGDTIFDGAFDIWGQGTMVTVSS : 6.31

Origin of the recorded values: patent US20200347127A1
